// provenance: ChEMBL document CHEMBL4725261

# target_under_test: Beta-galactoside alpha-2,6-sialyltransferase 1 (Homo sapiens)
# experiment_summary: Inhibition of recombinant human N-terminal 6His-tagged ST6Gal-1 (Glu44 to Cys406 residues) assessed as CMP production at 10 uM using CMP-Neu5Ac as donar substrate and LacNAc as acceptor by CMP-Glo luminescence microplate reader assay relative to control
This listing pairs molecules with measured inhibition.
Write it as a number; the unit % goes unstated.

Known results for molecules:
{"columns": ["molecule", "observed"],
 "data": [
  ["COc1ccc(C(OC(=O)NC[C@H]2O[C@@H](n3ccc(=O)[nH]c3=O)[C@H](O)[C@@H]2O)P(=O)(O)O)cc1OC1CCCC1 (stereo in doubt; 28h-(s))", 12.7],
  ["O=C(NC[C@H]1O[C@@H](n2ccc(=O)[nH]c2=O)[C@H](O)[C@@H]1O)OC(c1ccc(F)c(Oc2ccccc2)c1)P(=O)(O)O (stereo in doubt; 28b-(l))", 1.8],
  ["COc1cccc(C(OC(=O)NC[C@H]2O[C@@H](n3ccc(=O)[nH]c3=O)[C@H](O)[C@@H]2O)P(=O)(O)O)c1 (stereo in doubt; 28f-(l))", 23.6],
  ["Nc1ccn([C@@H]2O[C@H](CNC(=O)OC(c3cccc(Oc4ccccc4)c3)P(=O)(O)O)[C@@H](O)[C@H]2O)c(=O)n1 (stereo in doubt; 30-(l))", 6.3],
  ["O=C(NC[C@H]1O[C@@H](n2ccc(=O)[nH]c2=O)[C@H](O)[C@@H]1O)OC(c1cccc(Oc2ccccc2)c1)P(=O)(O)O (stereo in doubt; 28a-(s))", 19.9],
  ["O=C(NC[C@H]1O[C@@H](n2ccc(=O)[nH]c2=O)[C@H](O)[C@@H]1O)OC(c1cccc(Oc2ccccc2)c1)P(=O)(O)O (stereo in doubt; 28a-(l))", 28.2],
  ["O=C(NC[C@H]1O[C@@H](n2ccc(=O)[nH]c2=O)[C@H](O)[C@@H]1O)OC(c1cc2ccccc2s1)P(=O)(O)O (stereo in doubt; 28k-(l))", 13.2],
  ["COc1ccc(C(OC(=O)NC[C@H]2O[C@@H](n3ccc(=O)[nH]c3=O)[C@H](O)[C@@H]2O)P(=O)(O)O)cc1 (stereo in doubt; 28g-(s))", 18.1],
  ["COc1ccc(C(OC(=O)NC[C@H]2O[C@@H](n3ccc(=O)[nH]c3=O)[C@H](O)[C@@H]2O)P(=O)(O)O)cc1OC1CCCC1 (stereo in doubt; 28h-(l))", 7.9],
  ["O=C(NC[C@H]1O[C@@H](n2ccc(=O)[nH]c2=O)[C@H](O)[C@@H]1O)OC(c1cc2ccccc2s1)P(=O)(O)O (stereo in doubt; 28k-(s))", 66.4]
]}

Lookup: Name the recorded inhibition for O=C(NC[C@H]1O[C@@H](n2ccc(=O)[nH]c2=O)[C@H](O)[C@@H]1O)OC(c1ccc(OC2CCCC2)cc1)P(=O)(O)O (stereo in doubt; 28i-(s)) .
Found: 19

Lookup: Can you look up the measured inhibition of O=C(NC[C@H]1O[C@@H](n2ccc(=O)[nH]c2=O)[C@H](O)[C@@H]1O)OC(c1ccc(OC2CCCC2)cc1)P(=O)(O)O (stereo in doubt; 28i-(l)) for me?
Found: 78

Lookup: Quick one: inhibition of O=C(NC[C@H]1O[C@@H](n2ccc(=O)[nH]c2=O)[C@H](O)[C@@H]1O)OC(c1ccccc1)P(=O)(O)O (stereo in doubt; 28j-(s)) ?
Found: 7.1

Lookup: Look at this molecule and give its reported inhibition. O=C(NC[C@H]1O[C@@H](n2ccc(=O)[nH]c2=O)[C@H](O)[C@@H]1O)OC(c1csc2ccccc12)P(=O)(O)O (stereo in doubt; 28l-(l))
Found: 6.9
